Biological target: UniProt:Q96SW2
Assay: fluorescence polarization (FP) assay, cereblon binding
Conditions: read-out: rFP IC50
pIC50: −log10 of the molar value.
// pIC50 lookup, one value per entry

Lab note: measured pIC50 of O=C1CCC(N2Cc3ccc(COC(=O)Nc4cc(F)c(-c5ccccc5)c(F)c4)cc3C2=O)C(=O)N1 (stereo not drawn) was < 5.77

Lab note: measured pIC50 of O=C1CCC(N2Cc3ccc(COC(=O)NC45CC(c6ccccc6)(C4)C5)cc3C2=O)C(=O)N1 (stereo not drawn) was > 6.30

Lab note: measured pIC50 of C[C@@H]1CCCN1c1ccc(NC(=O)OCc2ccc3c(c2)C(=O)N(C2CCC(=O)NC2=O)C3)cn1 (stereo partly drawn) was > 6.30

Lab note: measured pIC50 of Cc1c(Cl)cc(NC(=O)OCc2ccc3c(c2)C(=O)N(C2CCC(=O)NC2=O)C3)cc1OCC1CCN(C)C1 (stereo not drawn) was > 6.30

Lab note: measured pIC50 of Cc1cc(NC(=O)OCc2ccc3c(c2)C(=O)N(C2CCC(=O)NC2=O)C3)cc(C)c1F (stereo not drawn) was > 6.30

Lab note: measured pIC50 of Cc1ccc(NC(=O)OCc2ccc3c(c2)C(=O)N(C2CCC(=O)NC2=O)C3)cc1C#N (stereo not drawn) was > 6.30

Lab note: measured pIC50 of O=C1CCC(N2Cc3ccc(COC(=O)Nc4cnc(N5CCCCC5)cn4)cc3C2=O)C(=O)N1 (stereo not drawn) was > 6.30

Lab note: measured pIC50 of CCc1cc(NC(=O)OCc2ccc3c(c2)C(=O)N(C2CCC(=O)NC2=O)C3)cc(Cl)c1C (stereo not drawn) was < 5.77

Lab note: measured pIC50 of N#Cc1cc(Cl)cc(NC(=O)OCc2ccc3c(c2)C(=O)N(C2CCC(=O)NC2=O)C3)c1 (stereo not drawn) was > 6.30

Lab note: measured pIC50 of CN1CCC(COc2cc(Cl)cc(NC(=O)OCc3ccc4c(c3)C(=O)N(C3CCC(=O)NC3=O)C4)c2)C1 (stereo not drawn) was > 6.30

###

Molecular target: GSPT1 (Homo sapiens (Human), UniProt P15170+Q96SW2)
Sequence (P15170 whole entry): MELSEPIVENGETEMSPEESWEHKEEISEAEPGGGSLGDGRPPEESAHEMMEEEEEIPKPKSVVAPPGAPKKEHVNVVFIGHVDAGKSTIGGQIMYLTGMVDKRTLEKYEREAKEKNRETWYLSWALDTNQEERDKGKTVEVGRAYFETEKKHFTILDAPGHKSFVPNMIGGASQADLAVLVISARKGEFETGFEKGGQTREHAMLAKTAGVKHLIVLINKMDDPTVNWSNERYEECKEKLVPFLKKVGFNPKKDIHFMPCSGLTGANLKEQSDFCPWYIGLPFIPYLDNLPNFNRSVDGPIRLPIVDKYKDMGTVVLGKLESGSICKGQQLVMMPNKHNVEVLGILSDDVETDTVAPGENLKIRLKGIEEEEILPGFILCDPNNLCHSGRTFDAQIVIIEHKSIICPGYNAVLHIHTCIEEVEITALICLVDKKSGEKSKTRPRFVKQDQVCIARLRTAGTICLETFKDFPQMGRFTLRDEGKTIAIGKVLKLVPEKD
Sequence (Q96SW2 whole entry): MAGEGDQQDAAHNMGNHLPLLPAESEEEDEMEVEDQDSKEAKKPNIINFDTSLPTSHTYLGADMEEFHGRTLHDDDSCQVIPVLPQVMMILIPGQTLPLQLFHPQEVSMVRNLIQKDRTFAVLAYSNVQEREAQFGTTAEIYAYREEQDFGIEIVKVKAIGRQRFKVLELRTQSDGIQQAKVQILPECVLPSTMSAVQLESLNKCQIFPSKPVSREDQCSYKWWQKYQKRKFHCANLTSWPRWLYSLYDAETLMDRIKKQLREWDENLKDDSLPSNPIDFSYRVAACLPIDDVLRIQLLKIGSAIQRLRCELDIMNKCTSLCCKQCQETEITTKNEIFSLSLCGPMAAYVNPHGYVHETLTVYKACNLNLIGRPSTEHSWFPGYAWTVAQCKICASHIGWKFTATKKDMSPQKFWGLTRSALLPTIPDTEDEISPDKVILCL
Sequence (Q16531 2-1140 partner): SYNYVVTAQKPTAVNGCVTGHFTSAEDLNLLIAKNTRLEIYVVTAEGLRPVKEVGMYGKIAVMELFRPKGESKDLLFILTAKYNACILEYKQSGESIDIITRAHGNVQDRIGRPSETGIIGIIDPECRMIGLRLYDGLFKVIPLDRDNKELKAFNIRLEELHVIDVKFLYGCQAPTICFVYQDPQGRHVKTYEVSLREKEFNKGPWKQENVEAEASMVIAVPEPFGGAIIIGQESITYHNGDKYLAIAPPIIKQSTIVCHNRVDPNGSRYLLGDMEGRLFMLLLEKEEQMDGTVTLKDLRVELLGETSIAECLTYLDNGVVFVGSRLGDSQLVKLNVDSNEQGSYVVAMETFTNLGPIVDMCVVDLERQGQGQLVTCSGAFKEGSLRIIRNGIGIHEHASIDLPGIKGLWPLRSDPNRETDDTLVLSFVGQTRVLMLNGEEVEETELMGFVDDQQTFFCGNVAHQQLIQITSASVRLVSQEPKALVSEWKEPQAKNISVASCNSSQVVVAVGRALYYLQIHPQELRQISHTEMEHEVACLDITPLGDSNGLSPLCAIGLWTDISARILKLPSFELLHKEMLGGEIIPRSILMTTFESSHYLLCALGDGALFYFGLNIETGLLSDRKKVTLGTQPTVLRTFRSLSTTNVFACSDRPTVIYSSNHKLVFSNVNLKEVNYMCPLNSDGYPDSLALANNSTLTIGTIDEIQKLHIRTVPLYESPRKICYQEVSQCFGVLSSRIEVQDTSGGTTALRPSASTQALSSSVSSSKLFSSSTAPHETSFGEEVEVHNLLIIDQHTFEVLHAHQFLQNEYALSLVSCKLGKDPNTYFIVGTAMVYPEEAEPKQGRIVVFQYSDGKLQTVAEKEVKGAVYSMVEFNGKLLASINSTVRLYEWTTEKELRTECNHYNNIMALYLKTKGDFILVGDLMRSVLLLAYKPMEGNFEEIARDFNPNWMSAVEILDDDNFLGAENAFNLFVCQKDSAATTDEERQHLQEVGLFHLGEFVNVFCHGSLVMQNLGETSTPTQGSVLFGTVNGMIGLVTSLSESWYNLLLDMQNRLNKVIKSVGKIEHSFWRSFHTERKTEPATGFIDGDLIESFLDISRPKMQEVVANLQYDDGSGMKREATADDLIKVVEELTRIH
Test: immunofluorescence assay for GSPT1 degradation in CAL-51 cells (Example 10)
Type: cell-based
Conditions: CAL-51 cells, 6 h; read-out: IF Class (GSPT1 degradation DC50)
readout.label: DC50

Field: example entries. Status: answers known.
1. Cc1cc(F)c(NC(=O)OCc2ccc3c(c2)C(=O)N(C2CCC(=O)NC2=O)C3)cc1OC(F)(F)F (centres unmarked) [Compound 204]; 30 to 300 nM
2. O=C1CCC(N2Cc3ccc(COC(=O)NC4CN(c5ccccc5)C4)cc3C2=O)C(=O)N1 (centres unmarked) [Compound 167]; > 300 nM
3. O=C1CCC(N2Cc3ccc(COC(=O)Nc4cccc(C5CC5)c4)cc3C2=O)C(=O)N1 (centres unmarked) [Compound 216]; < 30 nM
4. Cc1cc(F)c(NC(=O)OCc2ccc3c(c2)C(=O)N(C2CCC(=O)NC2=O)C3)c(F)c1Cl (centres unmarked) [Compound 211]; 30 to 300 nM
5. O=C1CCC(N2Cc3ccc(COC(=O)Nc4cc(Cl)ccc4F)cc3C2=O)C(=O)N1 (centres unmarked) [Compound 163]; > 300 nM
6. C[C@@H]1CCCN1c1cnc(NC(=O)OCc2ccc3c(c2)C(=O)N(C2CCC(=O)NC2=O)C3)c(F)c1 (some centres unmarked) [Compound 232]; 30 to 300 nM
7. O=C1CCC(N2Cc3ccc(COC(=O)Nc4ccc(C5CCC5)cc4F)cc3C2=O)C(=O)N1 (centres unmarked) [Compound 164]; > 300 nM
8. O=C1CCC(N2Cc3ccc(COC(=O)NC45CC(F)(C4)C5)cc3C2=O)C(=O)N1 (centres unmarked) [Compound 190]; > 300 nM
9. Cc1cc(F)c(NC(=O)OCc2ccc3c(c2)C(=O)N(C2CCC(=O)NC2=O)C3)cc1C(F)(F)F (centres unmarked) [Compound 233]; 30 to 300 nM
10. O=C1CCC(N2Cc3ccc(COC(=O)Nc4cccc(Cl)c4)cc3C2=O)C(=O)N1 (centres unmarked) [Compound 239]; < 30 nM

Lab note: measured DC50 of CC1(c2ccc(NC(=O)OCc3ccc4c(c3)C(=O)N(C3CCC(=O)NC3=O)C4)cc2F)COC1 (centres unmarked) [Compound 240] was 30 to 300 nM

Lab note: measured DC50 of Cc1ccc(NC(=O)OCc2ccc3c(c2)C(=O)N([C@@H]2CCC(=O)NC2=O)C3)cc1Cl (single isomer, unassigned) [Compound 176] was < 30 nM

###

Target: GSPT1 (Homo sapiens (Human), UniProt P15170+Q96SW2)
Test: immunofluorescence assay for GSPT1 degradation in CAL-51 cells (Example 10)
Format: cell-based
Details: CAL-51 cells, 6 h; read-out: IF Class (GSPT1 degradation DC50)
// DC50 lookup, one value per entry

1. CCCOc1ccc(F)c(NC(=O)OCc2ccc3c(c2)C(=O)N(C2CCC(=O)NC2=O)C3)c1 (stereo not shown); 30 to 300 nM
2. O=C1CCC(N2Cc3ccc(COC(=O)Nc4cc(Cl)cc5c4OCC5)cc3C2=O)C(=O)N1 (stereo not shown); 30 to 300 nM
3. Cc1cc(NC(=O)OCc2ccc3c(c2)C(=O)N(C2CCC(=O)NC2=O)C3)ncc1N1CCCC1 (stereo not shown); > 300 nM
4. O=C1CCC(N2Cc3ccc(COC(=O)NC45CC(N6CCOCC6)(C4)C5)cc3C2=O)C(=O)N1 (stereo not shown); > 300 nM
5. Cc1cc(F)c(NC(=O)OCc2ccc3c(c2)C(=O)N(C2CCC(=O)NC2=O)C3)cc1OC(F)F (stereo not shown); 30 to 300 nM

Lab note: measured DC50 of O=C1CCC(N2Cc3ccc(COC(=O)Nc4ccc(C(O)C(F)(F)F)nc4)cc3C2=O)C(=O)N1 (stereo not shown) was > 300 nM

Lab note: measured DC50 of O=C1CCC(N2Cc3ccc(COC(=O)Nc4cccc5c4OCC5)cc3C2=O)C(=O)N1 (stereo not shown) was > 300 nM

###

Target: Full length wild-type cereblon CRBN (Homo sapiens (Human))
Assay: fluorescence polarization (FP) assay, cereblon binding
Conditions: read-out: IC50 value
pIC50: −log10 of the molar value.
readout.label: pIC50

Field: example entries. Status: answers known.
1. O=C1CCC(N2Cc3ccc(COC(=O)NCc4ccccc4)cc3C2=O)C(=O)N1 (stereo not shown); > 5.96
2. Cc1ncc(NC(=O)OCc2ccc3c(c2)C(=O)N(C2CCC(=O)NC2=O)C3)cc1Cl (stereo not shown); > 5.96
3. Cc1c(Cl)cc(NC(=O)OCc2ccc3c(c2)C(=O)N(C2CCC(=O)NC2=O)C3)cc1OCC1CCNC1 (stereo not shown); > 5.96

Lab note: measured pIC50 of O=C1CCC(N2Cc3ccc(COC(=O)Nc4ccc(C5CC5)cc4)cc3C2=O)C(=O)N1 (stereo not shown) was > 5.96

###

Molecular target: Full length wild-type cereblon CRBN (Homo sapiens (Human), UniProt Q96SW2)
Assay: fluorescence polarization (FP) assay, cereblon binding
Conditions: read-out: rFP IC50
pIC50: −log10 of the molar value.
// pIC50 lookup, one value per entry

1) Cc1cc(C)c(F)c(NC(=O)OCc2ccc3c(c2)C(=O)N(C2CCC(=O)NC2=O)C3)c1 (stereo not drawn) [Compound 122]; > 6.30

Lab note: measured pIC50 of O=C1CCC(N2Cc3ccc(COC(=O)Nc4cc(OC(F)(F)F)ccc4Cl)cc3C2=O)C(=O)N1 (stereo not drawn) [Compound 125] was < 5.77

Lab note: measured pIC50 of Cc1ccc(NC(=O)OC(C)c2ccc3c(c2)C(=O)N(C2CCC(=O)NC2=O)C3)cc1Cl (stereo not drawn) [Compound 17] was < 5.77

###

Target: GSPT1 (Homo sapiens (Human), UniProt P15170+Q96SW2)
Assay: immunofluorescence assay for GSPT1 degradation in CAL-51 cells (Example 4)
Type: cell-based
Conditions: 6 hours, read-out: Activity for GSPT1 degradation, Code (DC50)
Description: The representative compounds were tested in an immunofluorescence assay for their activity to bind to degrade GSPT1. […] Primary antibody (human GSPT1, Sigma HPA052488) was diluted in blocking buffer (dil.1/300, 35 μl/well) and incubated with the cells overnight at 4° C. […] Fluorescence intensity of Alexa-Fluor 488 (GSPT1), Alexa-Fluor 647 (Actin) and DAPI (Nucleus) were measured. […] The Alexa-Fluor 488 (GSPT1) signal intensity in each cell was finally measured, in order to obtain a Mean intensity per cell. […]
readout.label: DC50

Field: example entries. Status: answers known.
1. O=C1CCC(N2Cc3ccc(COC(=O)Nc4cc(OCCN5CCOCC5)cc(OC(F)(F)F)c4)cc3C2=O)C(=O)N1 (stereo not shown); 30 to 300 nM
2. Cc1ccc(OC(F)(F)F)cc1NC(=O)OCc1ccc2c(c1)C(=O)N(C1CCC(=O)NC1=O)C2 (stereo not shown); > 300 nM
3. O=C1CCC(N2Cc3ccc(COC(=O)Nc4ccc(C5(F)CC5)nc4)cc3C2=O)C(=O)N1 (stereo not shown); < 30 nM
4. O=C1CCC(N2Cc3ccc(COC(=O)Nc4ccc(C5CC5)cc4)cc3C2=O)C(=O)N1 (stereo not shown); < 30 nM

Lab note: measured DC50 of Cc1cc(C)c(NC(=O)OCc2ccc3c(c2)C(=O)N(C2CCC(=O)NC2=O)C3)cc1Cl (stereo not shown) was > 300 nM

Lab note: measured DC50 of O=C1CCC(N2Cc3ccc(COC(=O)NC45CC(c6ccccc6)(C4)C5)cc3C2=O)C(=O)N1 (stereo not shown) was < 30 nM

Lab note: measured DC50 of O=C1CCC(N2Cc3ccc(COC(=O)Nc4cc(Cl)cc(OCC5CCNC5)c4)cc3C2=O)C(=O)N1 (stereo not shown) was > 300 nM
